B1: glmS ribozyme (parent)
chain: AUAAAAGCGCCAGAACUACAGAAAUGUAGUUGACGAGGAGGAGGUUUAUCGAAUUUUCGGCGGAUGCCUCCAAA

Variants of: B1
Test: self-cleavage kobs at 10000 uM GlcN6P; higher = faster cleavage; RNA array
Settings: with glucosamine-6-phosphate
Variants at the floor of the assay were thinned out.
Param threshold (0.0001 s⁻¹) applies to self-cleavage kobs at 10000 uM GlcN6P; output t when value >= threshold, f when value < threshold.

| seq string | assigned category |
| --- | --- |
| AUAAAAGCGCCAGCGCUACAGAAAUGUAGUUGACGAGGAUGAGGUUUAUCGAAUUUUCGGCGGAUGCCUCCAAA | t |
| AUAAAAGCGCCAGAACUACAGAAAUGUAGUUGACGAGGAGGUGGAUUAUCGAAUUUUCGGCGGAUGCCUCCAAA | t |
| AUAAAAGCGCCAGAACUACAGAAAUGUAUUUGACGAGGAGGAGGUUUAUCGAAAUUUCGGCGGAUGGCUCCAAA | f |
| AUAAAAGCGCCAGAGCUACAGAAAUGUAGUUGACGAGGAGGAGGUUUAUCGAAUUUUCGGCGGAUGUCUCCAAA | t |
| AUAAAAGCGCCAGAACUACAGAAAUGUAGUUGAAGAGGAGGAGGUUUAUCAAAUUUUCGGCGGAUGGCUACAAA | f |
| AUAAAAGCGCCAGGACUACAGAAAUGUAGUUCACGAGGAGGAGGUUUAUCGAUUUUUCGGCGGAUGCCUCCAAA | t |
| AUAAAAGCGCCAGCACUACAGAAAUGUAGUUGAAGAGGAGGAGGUUUAUCGAAUUUUCGGCGGAUGUCUCCAAA | f |
| AUAAAAGCACCAGAACUACAGAAAUGUAGUUGACGAGGAGGAGGUUUAUGGAAUUUUCGGCGGAGCCCUGCAAA | f |
| AUAAAAGCGCCAGAACUACAGAAAUGUAGUUGACCAGGAGGAGGUUUAUGGAAGUUUCGGCGGAUGCCUCCAAA | t |
| AUAAAAGCGUCAGAACUACAGAAAUGUAGUUGACGAGGAGGACGUUUAUUGAAUUUUCGGCGGAUGCCUUCAAA | f |
| AUAAAAGCGCCAGACCUACAGAAAUGUAGUUGACGAGGAGGAGGUUUAUCGUAUUUUCGGCGGAUGCCUCCAAA | f |
